# target under test: UniProt:P56658
# Sequence (P56658 whole entry): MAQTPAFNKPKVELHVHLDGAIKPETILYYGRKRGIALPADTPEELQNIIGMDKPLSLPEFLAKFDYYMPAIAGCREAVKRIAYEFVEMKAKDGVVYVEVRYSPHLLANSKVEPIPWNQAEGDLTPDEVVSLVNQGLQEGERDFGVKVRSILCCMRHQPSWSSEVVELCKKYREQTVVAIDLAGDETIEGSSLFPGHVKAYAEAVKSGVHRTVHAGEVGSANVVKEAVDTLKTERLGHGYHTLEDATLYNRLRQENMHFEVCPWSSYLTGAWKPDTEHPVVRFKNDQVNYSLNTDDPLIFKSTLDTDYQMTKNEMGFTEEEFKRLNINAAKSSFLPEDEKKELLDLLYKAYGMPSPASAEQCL
# protocol description: Inhibitory activity against adenosine deaminase
reported property: Ki (nM)

record smiles	reported property	result number
Nc1ccnc2c1ncn2[C@@H]1O[C@H](CO)[C@@H](O)[C@H]1O	Ki	180
